Target: T1, human amylin receptor (AMY3) on CHO-K1/Ga15/AMY3 cells (human, UniProt P30988 25-474; O60896 24-148)
T1 sequence (looked up) 1: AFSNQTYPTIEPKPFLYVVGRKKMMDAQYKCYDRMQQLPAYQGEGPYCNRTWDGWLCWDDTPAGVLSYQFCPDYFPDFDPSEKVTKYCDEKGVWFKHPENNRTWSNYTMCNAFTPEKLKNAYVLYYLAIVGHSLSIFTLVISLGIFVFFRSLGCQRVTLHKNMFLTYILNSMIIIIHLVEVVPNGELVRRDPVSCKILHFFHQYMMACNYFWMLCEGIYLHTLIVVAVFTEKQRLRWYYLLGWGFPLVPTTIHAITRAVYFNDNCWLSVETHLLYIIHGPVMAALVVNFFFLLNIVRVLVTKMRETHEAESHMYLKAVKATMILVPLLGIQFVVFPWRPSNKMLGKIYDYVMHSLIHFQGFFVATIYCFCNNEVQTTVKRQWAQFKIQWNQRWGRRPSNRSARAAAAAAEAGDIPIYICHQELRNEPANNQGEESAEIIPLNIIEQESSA
T1 sequence (looked up) 2: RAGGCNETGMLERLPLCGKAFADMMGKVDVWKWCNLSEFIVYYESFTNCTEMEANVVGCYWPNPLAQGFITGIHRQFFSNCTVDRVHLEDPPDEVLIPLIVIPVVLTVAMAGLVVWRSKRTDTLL
Test: cell-based or functional assay
*1 amine or outer side, *2 acyl side, *3 side chain or, on linkers, in order; H or OH if unused. Bridges are numbered along the chain shown (N, C = ends). Where no end group is shown, it is not given here. Side-chain parts run from the residue outwards. [ ]: non-standard residue; d: D form. The star is where a group is joined. C20 diacid = O=C(O)CCCCCCCCCCCCCCCCCCC(=O)*; C18 diacid = O=C(O)CCCCCCCCCCCCCCCCC(=O)*; γGlu = O=C(O)[C@H](CCC(=O)[*:2])N[*:1]; Hyp = O=C(O)[C@@H]1C[C@@H](O)CN1; AEEA = NCCOCCOCC(=O)O
readoutName: EC50, CRE-luciferase assay (pM)

P: RCNTATCATQRLADFLRHSSNK([AEEA-AEEA-γGlu-C18 diacid])LGPILPPTNVGSNT[Hyp]-NH2 (disulfide 2-7 (inferred)) [PD089]
Q: RCNTATCATQRLAEFLRHSSNNLK([γGlu-C20 diacid])PILPPTNVGSNTY-NH2 (disulfide 2-7 (inferred)) [PD017]
input: Of P and Q , which one carries the higher reported EC50, CRE-luciferase assay? Please reply using the label of the selected record.
output: Q

I: {C20 diacid-AEEA-AEEA-γGlu}-KCNTATCATQRLADFLRHSSNNLKPILPPTNVGSNTP-NH2 (disulfide 2-7 (inferred)) [PD188]
II: RCNTATCATQRLADFLRHSSNNLK([γGlu-C20 diacid])PILPPTNVGSNTP-NH2 (disulfide 2-7 (inferred)) [PD042]
input: I would appreciate it if you could say which entry, I or II , has the lower EC50, CRE-luciferase assay value. Please identify the chosen entry by its label.
output: I
